# Protocol notes: in vitro
# Test context: human
Measurement name: IC50

Illustrative cases are given below, each with its answer.
Q: Determine its reported IC50: C[C@H]1[C@@H](OCC(=O)N2C[C@H](F)C[C@H]2C(=O)O)O[C@@H]2O[C@@]3(C)CC[C@H]4[C@H](C)CC[C@@H]1[C@@]24OO3 [Compound 150]
Result: > 20 µM

Q: Determine its reported IC50: C[C@H]1[C@@H](OCc2cccc(CC(=O)O)c2)O[C@@H]2O[C@@]3(C)CC[C@H]4[C@H](C)CC[C@@H]1[C@@]24OO3 [Compound 34]
Result: > 20 µM

Attention now turns to another entry.
Q: Determine its reported IC50: C[C@H]1[C@H](OCc2cccc(C(=O)O)c2)O[C@@H]2O[C@@]3(C)CC[C@H]4[C@H](C)CC[C@@H]1[C@@]24OO3 [Compound 91]
Result: > 20 µM

###

# Protocol notes: in vitro
# Test context: human
In this section, each of the compounds is paired with its reported IC50.

Illustrative cases are given below, each with its answer.
Q: Determine its reported IC50: C[C@H]1[C@@H](OC[C@H]2CC[C@@H](C(=O)NC(C(=O)O)C3CCC3)CC2)O[C@@H]2O[C@@]3(C)CC[C@H]4[C@H](C)CC[C@@H]1[C@@]24OO3 (some centres unmarked)
Result: > 20 µM

Q: Determine its reported IC50: "C[C@H]1[C@@H](OCc2ccc(C(=O)NC34CC(C(=O)O)(C3)C4)cc2)O[C@@H]2O[C@@]3(C)CC[C@H]4[C@H](C)CC[C@@H]1[C@@]24OO3"
Result: 19.4 µM

Q: Determine its reported IC50: "C[C@H]1[C@@H](OCc2ccc(C(=O)O)c(OC(F)(F)F)c2)O[C@@H]2O[C@@]3(C)CC[C@H]4[C@H](C)CC[C@@H]1[C@@]24OO3"
Result: > 20 µM

Q: Determine its reported IC50: "C[C@H]1[C@@H](OCC2CCN(C(=O)C(=O)O)CC2)O[C@@H]2O[C@@]3(C)CC[C@H]4[C@H](C)CC[C@@H]1[C@@]24OO3"
Result: > 20 µM

Q: Determine its reported IC50: "C[C@H]1[C@@H](Oc2ccccc2OCC(=O)O)O[C@@H]2O[C@@]3(C)CC[C@H]4[C@H](C)CC[C@@H]1[C@@]24OO3"
Result: > 20 µM

***
Q: Determine its reported IC50: "C[C@H]1[C@@H](OCc2ccc(N3C(=O)N(CC(=O)O)C(C)(C)C3=O)cc2)O[C@@H]2O[C@@]3(C)CC[C@H]4[C@H](C)CC[C@@H]1[C@@]24OO3"
Result: > 20 µM

Q: Determine its reported IC50: "C[C@H]1[C@@H](OCc2ccc(C(=O)N[C@@H]3C[C@H](C(=O)O)C[C@H]3O)cc2)O[C@@H]2O[C@@]3(C)CC[C@H]4[C@H](C)CC[C@@H]1[C@@]24OO3"
Result: > 20 µM

Q: Determine its reported IC50: "C[C@H]1[C@@H](OCc2ccc(C(=O)N[C@H](C(=O)O)C(C)(C)C)cc2)O[C@@H]2O[C@@]3(C)CC[C@H]4[C@H](C)CC[C@@H]1[C@@]24OO3"
Result: 0.43 µM

Q: Determine its reported IC50: "C[C@H]1[C@@H](Oc2ccc(C(=O)N(C)[C@H]3CC[C@@H](C(=O)O)C3)cc2)O[C@@H]2O[C@@]3(C)CC[C@H]4[C@H](C)CC[C@@H]1[C@@]24OO3"
Result: 9.27 µM

Q: Determine its reported IC50: C[C@H]1[C@@H](OC[C@@]2(F)CCC(C(=O)O)C2)O[C@@H]2O[C@@]3(C)CC[C@H]4[C@H](C)CC[C@@H]1[C@@]24OO3 (some centres unmarked)
Result: 7.58 µM

Q: Determine its reported IC50: "C[C@H]1[C@@H](OCc2ccc(C(=O)N3CCC(C(=O)O)CC3)cc2)O[C@@H]2O[C@@]3(C)CC[C@H]4[C@H](C)CC[C@@H]1[C@@]24OO3"
Result: > 20 µM

###

# Tested on: HL-60
# Protocol notes: HL-60 differentiation potency
# Format: cell-based
# Test context: Homo sapiens
In this section, each of the compounds is paired with its reported log10 EC50.
Short version: log10 scale, EC50, nM.

Illustrative cases are given below, each with its answer.
Q: Identify measured log10 EC50 obtained with HL-60 for "C[C@H]1[C@H](NCCS(=O)(=O)N(C)C)O[C@@H]2O[C@@]3(C)CC[C@H]4[C@H](C)CC[C@@H]1[C@@]24OO3" .
Result: 3.98

Q: Identify measured log10 EC50 obtained with HL-60 for "C[C@H]1[C@H](NCCS(C)(=O)=O)O[C@@H]2O[C@@]3(C)CC[C@H]4[C@H](C)CC[C@@H]1[C@@]24OO3" .
Result: 2.82

Q: Identify measured log10 EC50 obtained with HL-60 for "C[C@H]1[C@@H](OCc2cc(Cl)cc(C(=O)O)c2)O[C@@H]2O[C@@]3(C)CC[C@H]4[C@H](C)CC[C@@H]1[C@@]24OO3" .
Result: 2.39

Q: Identify measured log10 EC50 obtained with HL-60 for "CNS(=O)(=O)CCN[C@@H]1O[C@@H]2O[C@@]3(C)CC[C@H]4[C@H](C)CC[C@@H]([C@H]1C)[C@@]24OO3" .
Result: 3.37

Q: Identify measured log10 EC50 obtained with HL-60 for "C[C@H]1[C@H](NCCS(=O)(=O)C(F)(F)F)O[C@@H]2O[C@@]3(C)CC[C@H]4[C@H](C)CC[C@@H]1[C@@]24OO3" .
Result: 2.41

***
Q: Identify measured log10 EC50 obtained with HL-60 for "C[C@H]1[C@@H](Oc2ccc(C(F)(F)C(=O)O)cc2)O[C@@H]2O[C@@]3(C)CC[C@H]4[C@H](C)CC[C@@H]1[C@@]24OO3" .
Result: 3.85

Q: Identify measured log10 EC50 obtained with HL-60 for "C[C@H]1[C@@H](OCc2ccc(C(=O)O)o2)O[C@@H]2O[C@@]3(C)CC[C@H]4[C@H](C)CC[C@@H]1[C@@]24OO3" .
Result: 2.52

Q: Identify measured log10 EC50 obtained with HL-60 for "C[C@H]1[C@@H](Oc2ccc(C(=O)NCC(=O)O)cc2)O[C@@H]2O[C@@]3(C)CC[C@H]4[C@H](C)CC[C@@H]1[C@@]24OO3" .
Result: 3.26

Q: Identify measured log10 EC50 obtained with HL-60 for "C[C@H]1[C@@H](OC[C@H]2CC[C@@H](C(=O)O)N2C)O[C@@H]2O[C@@]3(C)CC[C@H]4[C@H](C)CC[C@@H]1[C@@]24OO3" .
Result: 3.53

Q: Identify measured log10 EC50 obtained with HL-60 for "C[C@H]1[C@@H](Oc2ccc(CC(=O)O)cc2F)O[C@@H]2O[C@@]3(C)CC[C@H]4[C@H](C)CC[C@@H]1[C@@]24OO3" .
Result: 1.77

###

# Test system: HL-60
# Protocol notes: HL-60 differentiation potency
# Assay type: cell-based
# Test context: Homo sapiens
Measurement name: pEC50
Reminder that pEC50 is minus the log10 of a molar concentration.

Illustrative cases are given below, each with its answer.
Q: Identify measured pEC50 obtained with HL-60 for C[C@H]1[C@@H](Oc2ccc(C(=O)N3CC(C(=O)O)C3)cc2)O[C@@H]2O[C@@]3(C)CC[C@H]4[C@H](C)CC[C@@H]1[C@@]24OO3 [Compound 149] .
Result: 5.91

Q: Identify measured pEC50 obtained with HL-60 for C[C@H]1[C@H](N(C)CCS(C)(=O)=O)O[C@@H]2O[C@@]3(C)CC[C@H]4[C@H](C)CC[C@@H]1[C@@]24OO3 [Compound 17] .
Result: 7.02

Attention now turns to another entry.
Q: Identify measured pEC50 obtained with HL-60 for C[C@H]1[C@H](OC[C@H]2CCC[C@@H](C(=O)O)C2)O[C@@H]2O[C@@]3(C)CC[C@H]4[C@H](C)CC[C@@H]1[C@@]24OO3 [Compound 173] .
Result: 6.77

###

# Protocol notes: in vitro
# Test context: human
In this section, each of the molecules is paired with its reported IC50.

Q: Determine its reported IC50: C[C@H]1[C@@H](OCCS(C)(=O)=O)O[C@@H]2O[C@@]3(C)CC[C@H]4[C@H](C)CC[C@@H]1[C@@]24OO3 [Compound 90]
Result: > 20 µM

Q: Determine its reported IC50: C[C@H]1[C@@H](OCc2ccc(C(=O)O)c(F)c2F)O[C@@H]2O[C@@]3(C)CC[C@H]4[C@H](C)CC[C@@H]1[C@@]24OO3 [Compound 31]
Result: > 20 µM

Q: Determine its reported IC50: C[C@H]1[C@H](OCc2ccc(C(=O)O)c(Cl)c2)O[C@@H]2O[C@@]3(C)CC[C@H]4[C@H](C)CC[C@@H]1[C@@]24OO3 [Compound 92]
Result: > 20 µM

Q: Determine its reported IC50: C[C@H]1[C@@H](Oc2ccc(CC(=O)NC(C)(C)C)cc2)O[C@@H]2O[C@@]3(C)CC[C@H]4[C@H](C)CC[C@@H]1[C@@]24OO3 [Compound 104]
Result: 0.16 µM

Q: Determine its reported IC50: C[C@H]1[C@@H](OCc2ccc(C(N)=O)cc2)O[C@@H]2O[C@@]3(C)CC[C@H]4[C@H](C)CC[C@@H]1[C@@]24OO3 [Compound 30]
Result: 3.52 µM

Attention now turns to another entry.
Q: Determine its reported IC50: C[C@H]1[C@@H](OCC(=O)N2C[C@@H](O)C[C@H]2C(=O)O)O[C@@H]2O[C@@]3(C)CC[C@H]4[C@H](C)CC[C@@H]1[C@@]24OO3 [Compound 160]
Result: > 20 µM
